The reader will find reported GI50 values listed item by item below.
# Tested on: EKVX
# PROTOCOL: NCI tumour cell line growth inhibition, 48 h
Active and inactive are the calls of the source. No stated cut-off is given here; in the data, active = GI50 up to about 1.1 µM and inactive = higher.

MOLECULE	GI50
C=CC1(C)CC(=O)C2(O)C(C)(O1)C(OC(C)=O)C(O)C1C(C)(C)CCC(O)C12C (configuration not stated)	> 150 µM (inactive)
COc1ccc(-c2c(C3=NCCN3)nnn2-c2ccccc2)cc1	> 100 µM (inactive)
CCOC(=O)NC(Nc1ccc(OC(F)(F)F)cc1)(C(F)(F)F)C(F)(F)F	> 100 µM (inactive)
Cc1cc(=O)[nH]c(-n2[nH]c3c(c2=O)CCCC3)n1	58.2 µM (inactive)
Cc1cc2c(c(O)c1-c1c(C)cc(O)c3c1C(=O)C=CC3=O)C(=O)C=CC2=O	1.59 µM (inactive)
COC(=O)CCCCC/C(=C\C(=O)C(Cl)(Cl)Cl)OC	24.7 µM (inactive)

Enter reported GI50 observed with EKVX for `CC1(C)S[C@H](c2ccccc2C(=O)O)N[C@@H]1CC(=O)O`
> 100 µM (inactive)

Another: `CCCCc1ccc(-n2sc3ncc(-c4ccccc4)cc3c2=O)cc1`
> 100 µM (inactive)

Another: `CNC(=S)NNC(=O)c1c(C)nc2sccn12`
> 100 µM (inactive)

Another: `C/C(=C/CNc1ncnc2c1ncn2CCC#N)CO`
> 100 µM (inactive)

Another: `Cn1cnc([N+](=O)[O-])c1Sc1nc2ccccc2s1`
3.96 µM (inactive)

Another: O=C1CCC(=O)C(C(=O)CCC(=O)Nc2ccc(Cl)cc2)C1 (configuration not stated)
> 100 µM (inactive)

Another: CC1=NN(C(=O)CC(=O)Nc2cccc(Cl)c2)C(=O)C1/N=N/c1ccc(S(N)(=O)=O)cc1 (configuration not stated)
> 100 µM (inactive)

Another: `c1ccc(C2=NN3CN(N2)c2ccccc2OCCCOc2ccccc23)cc1`
> 100 µM (inactive)

Another: `Cc1nc2ccc(S(=O)(=O)Nc3ccccn3)cc2c(=O)n1NS(=O)(=O)c1ccccn1`
> 100 µM (inactive)

Another: CC(C#N)(NO)C(C)(C#N)NO (configuration not stated)
> 100 µM (inactive)

Another: `CC1(C)Cc2c(C#N)c(N)c3c(c2CO1)C(=O)OC3=O`
> 100 µM (inactive)

Another: `[O-]c1c[n+](CCCC[n+]2cc([O-])on2)no1`
> 100 µM (inactive)

Another: COC(=O)c1cc(C(=CCC[C@H]2CC[C@@]3(C)C(CCC4C3CC[C@@]3(C)C4CC[C@@H]3C(C)CCCC(C)C)C2)c2cc(Cl)c(O)c(C(=O)OC)c2)cc(Cl)c1O (some centres not stated)
> 10 µM (inactive)

Another: COc1ccc(OC(C)C(=O)O)c2c1CCCC2=O (configuration not stated)
> 100 µM (inactive)

Another: `CC(C)(CN)SCc1ccccc1`
> 100 µM (inactive)

Another: `C/N=c1\ss/c(=N\C(=S)N(C)C)n1C1CCCCC1`
> 31.6 µM (inactive)

====

# Test system: Malme-3M
# PROTOCOL: NCI tumour cell line growth inhibition, 48 h
Activity calls are given as the source filed them. Rule as the data show it: active = GI50 up to about 1.1 µM and inactive = higher.
The reader will find reported GI50 values listed item by item below.

Take a look at these entries with their results.
MOLECULE	TARGET OF ASSAY	METRIC NAME	OBSERVED RESULT
Cc1nc2ccc(S(=O)(=O)Nc3ccccn3)cc2c(=O)n1NS(=O)(=O)c1ccccn1	Malme-3M	GI50	> 100 µM (inactive)
CC1CN=C(Nc2ccc(F)cc2F)S1 (stereo not given)	Malme-3M	GI50	> 100 µM (inactive)
COc1cc(/C=C2\C(=O)N(C(=O)c3ccc(NC(C)=O)cc3)N=C2C)ccc1O	Malme-3M	GI50	> 100 µM (inactive)
C=C(C)C1CC/C(C)=C/CCC2(C)OC2CC/C(CO)=C\C1O (stereo not given)	Malme-3M	GI50	52.1 µM (inactive)
CC(=O)OCCN1c2ccccc2Sc2cnccc21	Malme-3M	GI50	> 10 µM (inactive)
Cc1ccc(S[C@@H](C)[C@@](O)(C(N)=O)c2ccccc2)cc1	Malme-3M	GI50	21 µM (inactive)

Enter reported GI50 observed with Malme-3M for CC1(CF)SCc2nc3ccccc3n21 (stereo not given)
> 100 µM (inactive)

Another: Nc1ncnc2c(C3OC(CO)C(O)C3O)scc12 (stereo not given)
2.54 µM (inactive)

Another: `O=c1c(C(c2ccc(C(c3c(O)oc4cc(O)ccc4c3=O)c3c(O)oc4cc(O)ccc4c3=O)cc2)c2c(O)oc3cc(O)ccc3c2=O)c(O)oc2cc(O)ccc12`
> 100 µM (inactive)

Another: `O=c1c(Nc2ccccc2)cn(CCOc2ccccc2)c(=O)n1CCOc1ccccc1`
79.6 µM (inactive)

====

# System: UACC-257
# PROTOCOL: NCI tumour cell line growth inhibition, 48 h
The source made the active and inactive calls. Cut-off read from the data, not from the text of the source: active = GI50 up to about 1.1 µM and inactive = higher.
METRIC NAME: GI50

Take a look at these entries with their results.
COMPOUND	GI50
NCCCc1nonc1C(=O)O	> 100 µM (inactive)
C=CCNC1=C2C[C@@H](C)C[C@@H](OC)[C@H](OC(=O)CCCCN)[C@H](C)/C=C(\C)[C@@H](OC(N)=O)[C@H](OC)/C=C\C=C(/C)C(=O)NC(=CC1=O)C2=O	6.17 µM (inactive)
COc1ccc(C=C2C(C)=NN(c3cccc(Cl)c3)C23C(Cl)C(=O)N3c2nc3ccccc3s2)cc1 (stereo not drawn)	24.9 µM (inactive)
CCOc1ccccc1/C=C1\NC(=O)N(/C=C2\C(=O)Oc3ccccc3C2=O)C1=O	40.1 µM (inactive)

Proceed to the following item.
I have this compound here, CC(=O)NC1C(OCc2ccccc2)OC(COC(=O)CCCCCNc2ccc([N+](=O)[O-])c3[nH]c4ccc(O)cc4c(=O)c23)C(O)C1OC(C)C(=O)N[C@@H](C)C(=O)N[C@H](CCC(=O)OCc1ccccc1)C(N)=O (stereo partly drawn) , and I need its recorded GI50.
2.45 µM (inactive)

====

# Tested on: SF-268
# PROTOCOL: NCI tumour cell line growth inhibition, 48 h
The source made the active and inactive calls. Rule as the data show it: active = GI50 up to about 1.1 µM and inactive = higher.
The reader will find reported GI50 values listed item by item below.

Take a look at these entries with their results.
Cc1nc2ccc(S(=O)(=O)Nc3ccccn3)cc2c(=O)n1NS(=O)(=O)c1ccccn1 > 100 µM (inactive)
CSC1=C(C(=O)Nc2ccc(C)cc2)C(N)=NC1=O > 100 µM (inactive)
O=C(Nc1ccc(Cl)cc1Cl)c1cc2nc3ccccc3c(=O)n2c2ccccc12 > 10 µM (inactive)
CCOc1ccccc1/N=N/c1c(-c2ccccc2)nn(C(=O)CC(=O)Nc2cccc(C)c2)c1-c1ccccc1 74.8 µM (inactive)

Proceed to the following item.
I have this compound here, `CN1Cc2ccccc2/C=C\c2ccccc21` , and I need its recorded GI50.
39.4 µM (inactive)

====

# Test system: SR
# PROTOCOL: NCI tumour cell line growth inhibition, 48 h
Active and inactive are the calls of the source. No stated cut-off is given here; in the data, active = GI50 up to about 1.1 µM and inactive = higher.
The reader will find reported GI50 values listed item by item below.

Take a look at these entries with their results.
COMPOUND	GI50
CC(=O)c1c(SCCN2CCOCC2)n(-c2ccccc2)c(=S)n(-c2ccccc2)c1=O	28.3 µM (inactive)
CCOP(=O)(OCC)C(Nc1cccc(F)c1)c1ccc(N(C)C)cc1 (stereo not given)	> 100 µM (inactive)
Cc1ccc(C(=O)N/N=C(\N=N\c2ccccc2)c2ccc(N(C)C)cc2)cc1	35.5 µM (inactive)

I have this compound here, COC(=O)C12OC3CO[Si](C(C)C)(C(C)C)O[Si](C(C)C)(C(C)C)OC3C1Oc1nc(=O)ccn12 (stereo not given) , and I need its recorded GI50.
15 µM (inactive)

Another: CN1C(=O)CC2CCC(=O)N2c2cccnc21 (stereo not given)
> 100 µM (inactive)

====

# System: A549
# PROTOCOL: NCI tumour cell line growth inhibition, 48 h
Active and inactive are the calls of the source. Cut-off read from the data, not from the text of the source: active = GI50 up to about 1.1 µM and inactive = higher.
Pick from yes (1) = active, no (0) = inactive when you respond.

Here's what some known entries look like.
COMPOUND	CLASS LABEL
COc1ccc([C@@]23Oc4cc(OC)cc(OC)c4[C@]2(O)[C@H](O)[C@H](C(N)=O)[C@H]3c2ccccc2)cc1 [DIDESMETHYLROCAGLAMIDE]	yes (1)
N#CC1C(C#N)C2(c3ccccc3)C(c3ccccc3)=NN(c3ccccc3)CC12 (centres undefined)	no (0)

Field: outcome | Entry: COc1cc2c(cc1OC)C(C(c1ccccc1)c1ccccc1)N(C)CC2 (centres undefined)
no (0)

Another: `CCN/C(=N\Nc1ccc([N+](=O)[O-])cc1)P(=O)(OC(C)C)OC(C)C`
no (0)

Another: O=P(O)(O)C(NCC(O)CN1CCOCC1)P(=O)(O)O (centres undefined)
no (0)

Another: C=C(C)C1CC/C(C)=C/CCC2(C)OC2CC/C(CO)=C\C1O (centres undefined)
no (0)

Values compiled from ChEMBL document CHEMBL1201862.
